TEST TARGET: HER2 WT (Homo sapiens)
Sequence (P04626 23-1255): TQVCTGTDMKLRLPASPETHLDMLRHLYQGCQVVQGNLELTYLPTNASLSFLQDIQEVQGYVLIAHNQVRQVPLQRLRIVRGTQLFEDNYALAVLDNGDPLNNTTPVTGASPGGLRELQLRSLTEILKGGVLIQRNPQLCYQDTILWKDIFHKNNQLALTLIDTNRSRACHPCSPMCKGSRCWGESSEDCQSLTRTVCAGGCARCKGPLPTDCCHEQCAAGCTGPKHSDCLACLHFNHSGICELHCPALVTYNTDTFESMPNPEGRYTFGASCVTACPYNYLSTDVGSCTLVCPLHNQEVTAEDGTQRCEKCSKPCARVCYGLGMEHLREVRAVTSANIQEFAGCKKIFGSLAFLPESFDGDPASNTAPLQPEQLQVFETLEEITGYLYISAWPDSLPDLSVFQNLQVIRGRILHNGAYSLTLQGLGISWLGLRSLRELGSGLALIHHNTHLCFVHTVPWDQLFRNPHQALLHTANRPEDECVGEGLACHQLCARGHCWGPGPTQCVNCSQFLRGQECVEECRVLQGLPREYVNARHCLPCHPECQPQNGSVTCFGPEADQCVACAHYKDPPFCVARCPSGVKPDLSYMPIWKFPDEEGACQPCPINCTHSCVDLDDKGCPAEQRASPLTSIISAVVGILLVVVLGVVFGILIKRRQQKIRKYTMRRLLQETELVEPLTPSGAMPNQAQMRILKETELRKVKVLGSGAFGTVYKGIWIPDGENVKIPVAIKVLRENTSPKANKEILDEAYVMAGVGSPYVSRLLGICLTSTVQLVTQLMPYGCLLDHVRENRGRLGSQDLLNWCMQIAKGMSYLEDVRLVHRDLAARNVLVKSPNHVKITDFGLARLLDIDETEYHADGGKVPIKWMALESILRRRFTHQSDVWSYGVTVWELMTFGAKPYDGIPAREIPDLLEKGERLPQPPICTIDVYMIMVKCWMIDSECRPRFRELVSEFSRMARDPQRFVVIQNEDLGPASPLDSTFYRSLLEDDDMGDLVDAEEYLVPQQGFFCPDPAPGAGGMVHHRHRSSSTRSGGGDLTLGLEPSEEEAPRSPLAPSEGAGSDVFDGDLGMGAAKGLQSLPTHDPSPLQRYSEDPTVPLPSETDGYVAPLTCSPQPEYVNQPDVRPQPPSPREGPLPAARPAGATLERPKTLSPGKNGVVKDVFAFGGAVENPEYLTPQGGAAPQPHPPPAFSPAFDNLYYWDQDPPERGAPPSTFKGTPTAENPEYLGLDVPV
pIC50: −log10 of the molar value.
Could you please report measured pIC50 for the items listed next?

Exercise: Can you look up the measured pIC50 of Cc1cc(Nc2ncnc3sc4c(c23)CCN(C(=O)/C=C/CN(C)C)C4)ccc1Oc1ccc2[nH]ncc2c1 for me?
Solution: > 7.00

Exercise: Thanks! And COCCN1CCN(C/C=C/C(=O)N2CCc3c(sc4ncnc(Nc5ccc(Oc6ccc(C)nc6)c(C)c5)c34)C2)CC1 ?
Solution: > 7.00

Exercise: Thanks! And Cc1ccc(Oc2ccc(Nc3ncnc4sc5c(c34)CCN(C(=O)/C=C/CN3CCN4CCC3CC4)C5)cc2C)cn1 ?
Solution: 5.00 to 6.00

Exercise: Thanks! And Cc1ccc(Oc2ccc(Nc3ncnc4sc5c(c34)CCN(C(=O)/C=C/CNCC3CN(C)CCO3)C5)cc2C)cn1 (stereo not drawn) ?
Solution: > 7.00

Exercise: Thanks! And COc1ccc(Oc2ccc(Nc3ncnc4sc5c(c34)CN(C(=O)/C=C/CN(C)C)C5)cc2C)cn1 ?
Solution: 6.00 to 7.00

Exercise: Thanks! And Cc1ccc(Oc2ccc(Nc3ncnc4sc5c(c34)C(C)CN(C(=O)C=CCN(C)C)C5)cc2C)cn1 (single isomer, unassigned) ?
Solution: > 7.00

Exercise: Thanks! And Cc1ccc(Oc2ccc(Nc3ncnc4sc5c(c34)CCN(C(=O)/C=C/CN3CC(F)(CO)C3)C5)cc2C)cn1 ?
Solution: > 7.00

Exercise: Thanks! And Cc1cc(Nc2ncnc3sc4c(c23)CCN(C(=O)/C=C/CN(C)C)C4)ccc1Oc1ccn2ccnc2c1 ?
Solution: > 7.00

Exercise: Thanks! And Cc1cc(Nc2ncnc3sc4c(c23)CCN(C(=O)/C=C/CN(C)C)C4)ccc1Oc1ccc2nccn2c1 ?
Solution: 6.00 to 7.00

====

TEST TARGET: HER2YVMA (Homo sapiens, UniProt P04626, INS775YVMA)
Sequence (P04626 with tags, fused parts or gaps INS775YVMA): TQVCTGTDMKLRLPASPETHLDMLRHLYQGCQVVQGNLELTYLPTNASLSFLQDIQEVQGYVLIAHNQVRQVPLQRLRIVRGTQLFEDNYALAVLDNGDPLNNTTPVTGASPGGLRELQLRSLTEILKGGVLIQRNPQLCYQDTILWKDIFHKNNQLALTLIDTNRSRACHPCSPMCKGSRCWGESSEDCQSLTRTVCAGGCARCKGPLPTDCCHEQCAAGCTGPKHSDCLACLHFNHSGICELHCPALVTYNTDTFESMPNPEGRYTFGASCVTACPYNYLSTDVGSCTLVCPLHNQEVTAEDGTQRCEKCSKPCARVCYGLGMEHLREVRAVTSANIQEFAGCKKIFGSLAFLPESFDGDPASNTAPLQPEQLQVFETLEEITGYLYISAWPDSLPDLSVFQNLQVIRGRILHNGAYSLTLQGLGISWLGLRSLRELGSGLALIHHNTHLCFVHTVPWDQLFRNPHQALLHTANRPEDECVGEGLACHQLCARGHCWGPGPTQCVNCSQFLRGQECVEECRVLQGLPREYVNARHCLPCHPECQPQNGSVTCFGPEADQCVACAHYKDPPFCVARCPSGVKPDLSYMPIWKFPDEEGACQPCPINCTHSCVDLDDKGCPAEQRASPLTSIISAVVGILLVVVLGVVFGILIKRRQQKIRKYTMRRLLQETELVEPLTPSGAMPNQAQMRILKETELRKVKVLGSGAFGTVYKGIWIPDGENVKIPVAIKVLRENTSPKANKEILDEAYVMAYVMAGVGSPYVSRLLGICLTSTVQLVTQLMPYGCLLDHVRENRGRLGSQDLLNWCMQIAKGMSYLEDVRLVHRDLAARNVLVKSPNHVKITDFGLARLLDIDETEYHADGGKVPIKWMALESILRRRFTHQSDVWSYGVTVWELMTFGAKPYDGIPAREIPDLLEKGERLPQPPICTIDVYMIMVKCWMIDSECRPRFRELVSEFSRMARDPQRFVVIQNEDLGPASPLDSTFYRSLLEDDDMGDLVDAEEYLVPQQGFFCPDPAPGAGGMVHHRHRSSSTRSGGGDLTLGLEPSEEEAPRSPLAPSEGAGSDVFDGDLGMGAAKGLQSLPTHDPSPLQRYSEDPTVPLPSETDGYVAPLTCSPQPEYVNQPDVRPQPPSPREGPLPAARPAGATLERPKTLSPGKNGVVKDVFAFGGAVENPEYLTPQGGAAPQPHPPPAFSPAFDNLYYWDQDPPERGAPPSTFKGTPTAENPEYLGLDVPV
TEST SUMMARY: HER2 signaling (pHER2) in Hek293-HER2YVMA cells
Format: cell-based
Parameters: expressed in transfected cells; host or cells: HEK293 (pool), Ba/F3 (clones), BEAS2B (clones); lentiviral vector pCDH-CMV-MCS-EF1-Neo
REPORTED CONDITIONS: 1.5 hr compound, 1% FBS, read-out: HEKYVMA pHER2 EC50
OUTCOME MEASURE: EC50

Exercise: Can you look up the measured EC50 of Cc1ccc(Oc2ccc(Nc3ncnc4sc5c(c34)CCN(C(=O)/C=C/CN3CCCC3C(N)=O)C5)cc2C)cn1 (stereo not shown) for me?
Solution: < 100 nM

Exercise: Thanks! And Cc1cn2ccc(Oc3ccc(Nc4ncnc5sc6c(c45)CCN(C(=O)/C=C/CN(C)C)C6)cc3C)cc2n1 ?
Solution: 100 to 350 nM

Exercise: Thanks! And Cc1cc(Nc2ncnc3sc4c(c23)CCN(C(=O)/C=C/CN(C)C)C4)ccc1Oc1ccc2ncnn2c1 ?
Solution: 100 to 350 nM

Exercise: Thanks! And O=C(/C=C/CN1CC2C(CO)C2C1)N1CCc2c(sc3ncnc(Nc4ccc(Oc5ccc6ncnn6c5)c(Cl)c4)c23)C1 (stereo not shown) ?
Solution: < 100 nM

Exercise: Thanks! And CCN(CC)C/C=C/C(=O)N1CCc2c(sc3ncnc(Nc4ccc(Oc5ccc(C)nc5)c(C)c4)c23)C1 ?
Solution: < 100 nM

Exercise: Thanks! And Cc1ccc(Oc2ccc(Nc3ncnc4sc5c(c34)CCN(C(=O)/C=C/CN3CCC[C@@H](CO)C3)C5)cc2C)cn1 ?
Solution: < 100 nM

Exercise: Thanks! And Cc1ccc(Oc2ccc(Nc3ncnc4sc5c(c34)CCN(C(=O)/C=C/CN3CCC4(CCOC4)C3)C5)cc2C)cn1 (stereo not shown) ?
Solution: < 100 nM
